# System: TcdA and TcdB holotoxins
# Format: biochemical, Clostridium difficile
# Test Context: Table 1, representative inositol analogs; read-out: AC50 (concentration that provides half the maximum activity)
Let's look at some compounds and their measured AC50.

# Compound, Qualifier, AC50 (µM)
measured = [
    ("OP(O)(=S)OC1C(OP(O)(O)=S)C(OP(O)(O)=S)C(OP(O)(O)=S)C(OP(O)(O)=S)C1OP(O)(O)=S [Myo-InsP6(S)]", "=", 1.99),
    ("O=P(O)(O)OC1C(O)C(OP(=O)(O)O)C(OP(=O)(O)O)C(OP(=O)(O)O)C1O (stereo not drawn) [Myo-InsP4(4,6), myo-inositol-(1,2,3,5-tetrakisphosphate)]", ">", 1000),
    ("O=P(O)(O)OC1C(O)C(OP(=O)(O)O)C(OP(=O)(O)O)C(OP(=O)(O)O)C1OP(=O)(O)O (stereo not drawn) [Myo-InsP5(2)]", "=", 10.5),
    ("O=P(O)(O)OC1C(O)C(OP(=O)(O)O)C(OP(=O)(O)O)C(OP(=O)(O)O)C1OP(=O)(O)O (stereo not drawn) [Myo-InsP5(3)]", "=", 95.6),
    ("O=P(O)(O)OC1C(O)C(OP(=O)(O)O)C(OP(=O)(O)O)C(OP(=O)(O)O)C1O (stereo not drawn) [Myo-InsP4(2,6), myo-inositol-(1,3,4,5-tetrakisphosphate)]", ">", 1000),
    ("O=P(O)(O)OC1C(O)C(OP(=O)(O)O)C(OP(=O)(O)O)C(OP(=O)(O)O)C1OP(=O)(O)O (stereo not drawn) [Myo-InsP5(1)]", "=", 8.67),
]
